- Test system: THP-1 control clone No. 53 (luciferase mRNA without instability sequence)
- Experiment description: Luciferase reporter gene assay, control clone No. 53 (pGL2_Neo, no instability sequence)
- Type: cell-based, human
- Condition label: compound 1 μM; differentiated cells
- From the text: In order to obtain a vector for stable integration into THP-1 cells, a XhoI-SaII fragment of the neo resistant gene (expressing aminoglycoside 3′phosphotransferase) derived from pMC1neoPolyA (Stratagene) was subcloned into the SaII site of pGL2-Control (Promega). This resulting plasmid was called pGL2_Neo. […]
Assay metric: Luciferase Activity (% of Control) Clone No. 53

O=C1CCC(N2C(=O)c3ccccc3C2=O)C(=O)N1 (stereo not shown) [Thalidomide] = 98 % of Control
COc1cc(O)c2c(c1OC)/C=C/C[C@H](O)[C@H](O)C(=O)/C=C\C[C@H](C)OC2=O = 120 % of Control
C=C(C/C=C/C(C)(C)O)[C@@H]1CC[C@]2(C)[C@@H]1CC[C@@H]1[C@@]3(C)CC[C@H](O)C(C)(C)[C@@H]3CC[C@]12C = 116 % of Control

From here, focus on the item given below.
Record request: Luciferase Activity (% of Control) Clone No. 53 value, item C[C@@H]1C[C@H]2[C@@H]3CCC4=CC(=O)C=C[C@]4(C)[C@@]3(F)[C@@H](O)C[C@]2(C)[C@@]1(O)C(=O)CO
72 % of Control
